Cited source: patent EP1614683B1

ASSAY SYSTEM: LCK tyrosine kinase (Homo sapiens, UniProt P06239, C224D/P223M)
Sequence (P06239 223-509 P223M/C224D): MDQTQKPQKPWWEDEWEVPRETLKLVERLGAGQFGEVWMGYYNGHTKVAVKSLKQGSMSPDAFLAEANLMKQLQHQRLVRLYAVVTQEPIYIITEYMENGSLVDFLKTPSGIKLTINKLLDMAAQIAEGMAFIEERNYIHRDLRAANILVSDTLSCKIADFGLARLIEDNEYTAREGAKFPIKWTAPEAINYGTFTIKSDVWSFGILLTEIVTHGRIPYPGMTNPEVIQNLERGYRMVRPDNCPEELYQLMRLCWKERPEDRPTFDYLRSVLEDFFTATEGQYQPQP
ASSAY SUMMARY: LCK spectrophotometric assay
Type: biochemical
EXPERIMENTAL SETUP: read-out: Lck* (% inhibition)
Lab note: compare inhibition at 1 µM against 70%. Equal or greater, write 1. Smaller, write 0.

>>> cat("COc1cc(-c2ccc3c(-c4nc5ccccc5[nH]4)n[nH]c3c2)c(C)cc1O")
0
>>> cat("CSc1cc(O)ccc1-c1ccc2c(-c3nc4ccccc4[nH]3)n[nH]c2c1 [Reference Example 24(k)]")
1
>>> cat("COc1cc(O)ccc1-c1ccc2c(-c3nc4ccc(C(=O)NCCN5CCOCC5)cc4[nH]3)n[nH]c2c1 [Reference Example 25(b)]")
1
>>> cat("COc1cc(O)ccc1-c1ccc2c(-c3nc4c(SCCO)cccc4[nH]3)n[nH]c2c1 [Reference Example 25(f)]")
0
>>> cat("COc1cc(O)ccc1-c1ccc2c(-c3nc4cc(N(C)C)ccc4[nH]3)n[nH]c2c1 [Reference Example 25(h)]")
1
>>> cat("Cc1cc(O)c(Cl)cc1-c1ccc2c(-c3nc4ccccc4[nH]3)n[nH]c2c1")
1
>>> cat("Cc1cc(O)ccc1-c1ccc2c(-c3nc4ccccc4[nH]3)n[nH]c2c1")
1
>>> cat("COc1cc(O)ccc1-c1ccc2c(-c3nc4ccncc4[nH]3)n[nH]c2c1 [Reference Example 25(a)]")
0
>>> cat("COc1cc(O)ccc1-c1ccc2c(-c3nc4c(N5CCN(C)CC5)cccc4[nH]3)n[nH]c2c1 [Reference Example 25(d)]")
0
>>> cat("COc1cc(O)ccc1-c1ccc2c(-c3nc4ccccc4[nH]3)n[nH]c2c1")
0
>>> cat("COc1cc(O)ccc1-c1ccc2c(-c3ncc[nH]3)n[nH]c2c1 [Reference Example 25(e)]")
0
>>> cat("CNC(=O)c1ccc2[nH]c(-c3n[nH]c4cc(-c5ccc(O)cc5OC)ccc34)nc2c1 [Reference Example 25(g)]")
1

###

Tested on: lung cancer cells (line MV522)
ASSAY SUMMARY: Cancer cell proliferation (MV522) assay
Format: cell-based
EXPERIMENTAL SETUP: MV522, read-out: MV522 IC50 (µM)
ASSAY METRIC: IC50

>>> result("COc1cc(-c2ccc3c(/C=C/c4ccc(OC)c(OC)c4)n[nH]c3c2)ccc1O")
"0.35 µM"
>>> result("COc1cc(-c2ccc3c(-c4cc5ccccc5[nH]4)n[nH]c3c2)ccc1O")
"0.18 µM"
>>> result("COc1cc(-c2ccc3c(-c4ccc5ccccc5c4)n[nH]c3c2)ccc1O")
"0.58 µM"

###

ASSAY SYSTEM: LCK tyrosine kinase (Homo sapiens, UniProt P06239, C224D/P223M)
ASSAY SUMMARY: LCK spectrophotometric assay
Assay type: biochemical
EXPERIMENTAL SETUP: Table 1; compound concentration 1 µM; read-out: Lck-P* (% inhibition)
Lab note: compare inhibition at 1 µM against 20%. Equal or greater, write True. Smaller, write False.

>>> cat("Cc1cccc(C(=O)Nc2cccc(Oc3ccc4c(-c5cc6ccccc6[nH]5)n[nH]c4c3)c2)c1 [6(b)]")
"True"
>>> cat("O=C(NOCC1CC1)c1ccccc1Sc1ccc2c(/C=C/c3ccccn3)n[nH]c2c1 [Reference Example 35(s)]")
"False"
>>> cat("O=C(NC1CC1)c1ccccc1Sc1ccc2c(/C=C/c3ccccn3)n[nH]c2c1 [Reference Example 33(e)]")
"False"
>>> cat("CCCONC(=O)c1ccccc1Sc1ccc2c(/C=C/c3ccccn3)n[nH]c2c1 [Reference Example 35(t)]")
"False"
>>> cat("CCONC(=O)c1ccccc1Sc1ccc2c(/C=C/c3ccccn3)n[nH]c2c1 [Reference Example 35(dd)]")
"False"
>>> cat("O=C(Nc1cccc(Sc2ccc3c(/C=C/c4ccccc4)n[nH]c3c2)c1)c1ccccc1 [20(b)]")
"True"
>>> cat("CONC(=O)c1ccccc1Sc1ccc2c(/C=C/c3ccccn3)n[nH]c2c1 [Reference Example 35(r)]")
"False"
>>> cat("CNC(=O)c1cccc(F)c1Sc1ccc2c(/C=C/c3ccccn3)n[nH]c2c1 [Reference Example 37(d)]")
"False"
>>> cat("Cc1cc(C(=O)Nc2cc(C(=O)c3ccc4c(/C=C/c5ccccn5)n[nH]c4c3)c(C)cc2C)n(C)n1 [41(min)]")
"False"
>>> cat("CC(=O)Nc1cc(C(=O)c2ccc3c(/C=C/c4ccccn4)n[nH]c3c2)ccc1C [Reference Example 41(gg)]")
"True"
>>> cat("O=C(NCC1CC1)c1ccccc1Sc1ccc2c(/C=C/c3ccccn3)n[nH]c2c1 [Reference Example 35(v)]")
"False"
>>> cat("Cc1cc(C(=O)Nc2cc(C(=O)c3ccc4c(/C=C/c5ccccn5)n[nH]c4c3)ccc2C)n(C(C)C)n1 [Reference Example 41(kk)]")
"True"
>>> cat("O=C(Nc1nccs1)c1ccccc1Sc1ccc2c(/C=C/c3ccccn3)n[nH]c2c1 [Reference Example 35(y)]")
"True"
